Assign pIC50 to each entry below.
System: MYB mRNA
assay: Splicing RT-qPCR assay, MYB canonical (CJ) and alternative (AJ) junction mRNA
Assay type: cell-based, human
run.parameters: Homo sapiens; canonical junction mRNA, RT-qPCR, A673 or K562 cells, 24 hours treatment; read-out: MYB CJ (IC50, decrease in CJ mRNA)
pIC50: −log10 of the molar value.

Incoming: // map C[C@H]1CN(c2cnc3nc(-c4cc5cn(C)nc5cc4O)cc(Cl)c3c2)CC2(CC2)N1 to recorded pIC50 (system: MYB mRNA)
Outgoing: 6.00 to 7.00

Incoming: // map C[C@@H]1CN(c2cnc3nc(-c4cc5cn(C)nc5c(F)c4O)cc(Cl)c3c2)C[C@@H](C)N1 to recorded pIC50 (system: MYB mRNA)
Outgoing: > 7.00

Incoming: // map Cc1cn2nc(-c3cc(Cl)c4cc(N5CCC(N(C)C)CC5)cnc4n3)cc(C)c2n1 to recorded pIC50 (system: MYB mRNA)
Outgoing: 6.00 to 7.00

Incoming: // map CN(c1cnc2nc(-c3cc4cn(C)nc4c(F)c3O)cc(Cl)c2c1)[C@@H]1CCNC1 to recorded pIC50 (system: MYB mRNA)
Outgoing: > 7.00

Incoming: // map Cc1c(O)c(-c2ccc3cc(N4CC[C@@H](NCC5CC5)C4)cnc3n2)cc2cn(C)nc12 to recorded pIC50 (system: MYB mRNA)
Outgoing: > 7.00

Incoming: // map C[C@@H]1CN(c2cnc3nc(-c4cc5cn(C)nc5c(F)c4O)cc(C4CC4)c3c2)C[C@H](C)N1 to recorded pIC50 (system: MYB mRNA)
Outgoing: 6.00 to 7.00

Incoming: // map Cc1cn2cc(-c3cnc4nc(C5CCNCC5)ccc4c3)cc(C)c2n1 to recorded pIC50 (system: MYB mRNA)
Outgoing: < 5.00

Incoming: // map CN[C@@H]1CCN(c2cnc3nc(-c4cc(C)c5nc(C)cn5n4)cc(Cl)c3c2)C1 to recorded pIC50 (system: MYB mRNA)
Outgoing: > 7.00
